assaySystem: NaV1.7 (Homo sapiens, UniProt Q15858)
Construct: expressed in transfected cells; host or cells: HEK293 (tetracycline-inducible)
Sequence (Q15858 whole entry): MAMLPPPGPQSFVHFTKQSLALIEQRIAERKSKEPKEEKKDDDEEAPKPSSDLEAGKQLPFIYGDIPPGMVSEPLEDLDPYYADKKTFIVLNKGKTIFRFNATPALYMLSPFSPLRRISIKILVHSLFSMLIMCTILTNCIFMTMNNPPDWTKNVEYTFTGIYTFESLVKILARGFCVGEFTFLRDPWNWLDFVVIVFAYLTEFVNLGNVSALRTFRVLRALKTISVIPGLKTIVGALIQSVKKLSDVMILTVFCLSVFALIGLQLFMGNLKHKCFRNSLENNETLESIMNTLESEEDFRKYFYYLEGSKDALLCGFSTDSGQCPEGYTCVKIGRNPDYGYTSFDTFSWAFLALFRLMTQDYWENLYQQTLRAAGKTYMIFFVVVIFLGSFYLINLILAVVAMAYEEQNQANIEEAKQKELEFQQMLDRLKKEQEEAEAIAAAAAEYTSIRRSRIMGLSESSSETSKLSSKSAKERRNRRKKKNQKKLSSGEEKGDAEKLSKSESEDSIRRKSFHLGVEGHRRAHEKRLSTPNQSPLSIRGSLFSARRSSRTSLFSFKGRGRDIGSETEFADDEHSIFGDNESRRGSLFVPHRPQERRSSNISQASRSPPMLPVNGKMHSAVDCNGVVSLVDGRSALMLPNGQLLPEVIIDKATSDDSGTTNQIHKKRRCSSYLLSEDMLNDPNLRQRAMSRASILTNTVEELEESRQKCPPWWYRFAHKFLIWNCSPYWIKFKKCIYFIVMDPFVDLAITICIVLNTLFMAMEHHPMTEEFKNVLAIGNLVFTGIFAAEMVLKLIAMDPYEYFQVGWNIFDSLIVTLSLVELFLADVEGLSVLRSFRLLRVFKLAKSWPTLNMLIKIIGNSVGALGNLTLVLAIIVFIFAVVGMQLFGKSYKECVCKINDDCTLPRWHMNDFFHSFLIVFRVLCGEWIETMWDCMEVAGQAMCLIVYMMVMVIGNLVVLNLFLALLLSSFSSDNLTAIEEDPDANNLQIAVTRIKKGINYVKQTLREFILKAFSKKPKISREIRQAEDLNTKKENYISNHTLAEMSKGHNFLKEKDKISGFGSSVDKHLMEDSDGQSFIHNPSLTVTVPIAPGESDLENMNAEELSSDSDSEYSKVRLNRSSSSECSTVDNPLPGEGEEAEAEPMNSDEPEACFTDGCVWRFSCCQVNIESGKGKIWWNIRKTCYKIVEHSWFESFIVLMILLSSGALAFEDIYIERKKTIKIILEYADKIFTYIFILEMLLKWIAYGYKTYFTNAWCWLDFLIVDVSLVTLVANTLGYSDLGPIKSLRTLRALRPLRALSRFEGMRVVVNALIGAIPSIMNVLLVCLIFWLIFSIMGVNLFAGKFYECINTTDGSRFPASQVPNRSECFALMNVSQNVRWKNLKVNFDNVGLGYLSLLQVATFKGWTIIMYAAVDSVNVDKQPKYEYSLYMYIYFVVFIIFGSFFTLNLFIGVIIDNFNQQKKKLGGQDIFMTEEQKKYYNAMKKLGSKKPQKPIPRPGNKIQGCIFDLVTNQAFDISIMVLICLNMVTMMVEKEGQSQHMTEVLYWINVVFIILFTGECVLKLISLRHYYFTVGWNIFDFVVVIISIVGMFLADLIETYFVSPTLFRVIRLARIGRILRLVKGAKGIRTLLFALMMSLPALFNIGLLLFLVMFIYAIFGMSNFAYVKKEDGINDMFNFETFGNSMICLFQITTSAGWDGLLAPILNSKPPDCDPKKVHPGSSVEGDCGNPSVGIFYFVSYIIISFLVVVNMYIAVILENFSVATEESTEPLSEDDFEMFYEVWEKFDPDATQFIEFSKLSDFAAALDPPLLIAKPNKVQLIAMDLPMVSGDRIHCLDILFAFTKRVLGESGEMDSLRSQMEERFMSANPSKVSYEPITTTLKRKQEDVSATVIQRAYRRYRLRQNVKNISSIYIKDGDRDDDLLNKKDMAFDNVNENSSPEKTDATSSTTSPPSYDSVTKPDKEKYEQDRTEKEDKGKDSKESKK
assayInfo: Manual patch clamp, internal block of NaV1.7 current
Format: cell-based
runConditions: % inhibition at 3 μM test concentration, compound in internal solution, HEK293 cells, read-out: Nav1.7 Intracellular Inhibition
Measured inhibition at 3 µM of individual entries

// below: answered molecules
CCCc1cccc(C)c1NC(=O)C[N+]1(Cc2ccccc2)CCCCCC1.[Br-] [Compound 75A] = > 90%
Cc1cccc(C)c1NC(=O)C[N+]1(Cc2ccccc2)CCCC(C(=O)NC(C)C)C1 (stereo not drawn) [Compound 56A] = 40 to 70%
CCc1ccccc1C[N+]1(C(CC)C(=O)Nc2c(C)cccc2C)CCCCC1 (stereo not drawn) [Compound 21A] = > 90%

Recorded inhibition at 3 µM for Cc1cccc(C)c1NC(=O)C[N+]1(Cc2ccccc2)CCCCC1 with NaV1.7 (Homo sapiens, UniProt Q15858), please?
70 to 90%

Recorded inhibition at 3 µM for COC(=O)c1ccc(C[N+]2(CC(=O)Nc3c(C)cccc3C)CCCCC2)cc1.[Br-] [Compound 36A] with NaV1.7 (Homo sapiens, UniProt Q15858), please?
70 to 90%

Recorded inhibition at 3 µM for CCC(C(=O)Nc1c(C)cccc1C)[N+]1(Cc2cccc(O)c2)CCCCC1 (stereo not drawn) [Compound 29A] with NaV1.7 (Homo sapiens, UniProt Q15858), please?
> 90%

Recorded inhibition at 3 µM for COC(=O)c1cccc(C[N+]2(CC(=O)Nc3c(C)cccc3C)CCCCC2)c1.[Br-] [Compound 35A] with NaV1.7 (Homo sapiens, UniProt Q15858), please?
> 90%

Recorded inhibition at 3 µM for CCOc1cccc(C)c1NC(=O)C[N+]1(Cc2ccccc2)CCCCCC1.[Br-] [Compound 77A] with NaV1.7 (Homo sapiens, UniProt Q15858), please?
70 to 90%

Recorded inhibition at 3 µM for CNC(=O)C1CCC[N+](CC(=O)Nc2c(C)cccc2C)(Cc2ccccc2)C1 (stereo not drawn) [Compound 55A] with NaV1.7 (Homo sapiens, UniProt Q15858), please?
70 to 90%

###

assaySystem: NaV1.7 (Homo sapiens)
Construct: expressed in transfected cells; host or cells: HEK293 (tetracycline-inducible)
assayInfo: Automated patch clamp (Qube 384), internal block of NaV1.7
Format: cell-based
runConditions: IC50, compound in internal solution, HEK293 cells, read-out: Nav1.7 Intracellular Inhibition
Measured IC50 of individual entries

# lookup: IC50 of Cc1cccc(C)c1N1CCC([N+]2(Cc3ccccc3)CCCCC2)C1=O.[Br-] (stereo not drawn) [Compound 89A]
1000 to 3000 nM

###

assaySystem: NaV1.7 (Homo sapiens)
Construct: expressed in transfected cells; host or cells: HEK293 (tetracycline-inducible)
assayInfo: Manual patch clamp, internal block of NaV1.7 current
Type: cell-based
runConditions: % inhibition at 10 μM test concentration, compound in internal solution, HEK293 cells, read-out: Nav1.7 Intracellular Inhibition
propertyName: inhibition at 10 µM

CC[N+](CC)(CCCc1ccccc1)CC(=O)Nc1c(C)cccc1C.[Br-] [Compound 86A] = > 95%
CCC(C(=O)Nc1c(C)cccc1C)[N+]1(Cc2ccccc2F)CCCCC1 (centres unmarked) = > 95%
CCCCNc1ccc(NC(=O)C[N+]2(Cc3ccccc3)CCCCCC2)cc1.O=C[O-] [Compound 41A, formate] = 70 to 95%
Cc1cccc(C)c1NC(=O)C[N+]1(Cc2ccccc2)CCCC1.[Br-] = 70 to 95%
CCC(C(=O)Nc1c(C)cccc1C)[N+]1(Cc2cccc(F)c2)CCCCC1 (centres unmarked) = 70 to 95%

Recorded inhibition at 10 µM for CCC(C(=O)Nc1c(C)cccc1C)[N+]1(Cc2ccccc2O)CCCCC1 (centres unmarked) [Compound 28A, 2,2,2-trifluoroacetate] with NaV1.7 (Homo sapiens), please?
40 to 70%

Recorded inhibition at 10 µM for Cc1cccc(C)c1NC(=O)C[N+]1(Cc2ccccc2)CCCCCCC1.[Br-] [Compound 31A] with NaV1.7 (Homo sapiens), please?
> 95%

Recorded inhibition at 10 µM for CCc1cccc(C[N+]2(C(CC)C(=O)Nc3c(C)cccc3C)CCCCC2)c1 (centres unmarked) [Compound 20A] with NaV1.7 (Homo sapiens), please?
> 95%

###

assaySystem: NaV1.7 (Homo sapiens)
Construct: expressed in transfected cells; host or cells: HEK293 (tetracycline-inducible)
assayInfo: Manual patch clamp, internal block of NaV1.7 current
Type: cell-based
runConditions: % inhibition at 3 μM test concentration, compound in internal solution, HEK293 cells, read-out: Nav1.7 Intracellular Inhibition
propertyName: inhibition at 3 µM

// below: answered molecules
Cc1cccc(C#N)c1NC(=O)C[N+]1(Cc2ccccc2)CCCCCC1.[Br-] [Compound 72A] = > 90%
Cc1cccc(C)c1NC(=O)C[N+]1(Cc2ccccc2)CCCCCCC1.[Br-] [Compound 31A] = > 90%
Cc1cccc(C(F)(F)F)c1NC(=O)C[N+]1(Cc2ccccc2)CCCCCC1 [Compound 73A] = > 90%

# lookup: inhibition at 3 µM of CCCCNC(=O)C1CCC[N+](CC(=O)Nc2c(C)cccc2C)(Cc2ccccc2)C1.[Br-] (stereo not shown) [Compound 59A]
< 40%

###

assaySystem: NaV1.7 (Homo sapiens, UniProt Q15858)
Construct: expressed in transfected cells; host or cells: HEK293 (tetracycline-inducible)
assayInfo: Manual patch clamp, external block of NaV1.7 current
Format: cell-based
runConditions: % inhibition at 10 μM test concentration, compound in external solution, HEK293 cells, read-out: Nav1.7 Extracellular Inhibition
Structures can show the parent of a compound that is named as a salt.
propertyName: inhibition at 10 µM

// below: answered molecules
Cc1cccc(C)c1N(C)C(=O)C[N+]1(Cc2ccccc2)CCCCCC1 [Compound 38A, formate] = < 40%
CCC(C(=O)Nc1c(C)cccc1C)[N+]1(Cc2ccccc2)CCCCC1.[Br-] (centres unmarked) = < 40%
Cc1cccc(C)c1NC(=O)C[N+]1(Cc2ccccc2)CCCC(C(=O)OC(C)C)C1 (mixture of isomers) [Compound 46A, trifluoroacetate salt] = 40 to 70%
CCC(C(=O)Nc1c(C)cccc1C)[N+]1(Cc2ccccc2F)CCCCC1 (centres unmarked) = < 40%

# lookup: inhibition at 10 µM of Cc1cccc(C)c1NC(=O)C[N+]1(Cc2ccccc2)CCCCCC1.[Br-]
40 to 70%

# lookup: inhibition at 10 µM of Cc1cccc(C)c1NC(=O)C[N+]1(Cc2ccccc2)CCCCC1
< 40%

# lookup: inhibition at 10 µM of Cc1cccc(C)c1NC(=O)C[N+]1(Cc2ccccc2)CCCC(C(N)=O)C1.[Br-] (mixture of isomers) [Compound 53A]
< 40%

# lookup: inhibition at 10 µM of COC(=O)C1CC[N+](CC(=O)Nc2c(C)cccc2C)(Cc2ccccc2)CC1.[Br-] (centres unmarked) [Compound 44A]
< 40%

###

Measured pIC50 of individual entries
assaySystem: NaV1.7 (Homo sapiens)
Construct: expressed in transfected cells; host or cells: HEK293 (tetracycline-inducible)
assayInfo: Automated patch clamp (Qube 384), internal block of NaV1.7
Format: cell-based
runConditions: IC50, compound in internal solution, HEK293 cells, read-out: Nav1.7 Intracellular Inhibition
pIC50: −log10 of the molar value. Where a name gives a salt, the structure may show the parent alone.

# lookup: pIC50 of Cc1cccc(C)c1NC(=O)C[N+]1(Cc2ccccc2)CCCC(C(N)=O)C1.[Br-] (mixture of isomers) [Compound 53A]
6.00 to 6.52

# lookup: pIC50 of Cc1cccc(C)c1NCC[N+]1(Cc2ccccc2)CCCCCC1 [Compound 84A, trifluoroacetate]
5.00 to 5.52

# lookup: pIC50 of Cc1cccc(C)c1NC(=O)C[N+]1(Cc2ccccc2)CCCC(C(=O)OCC(C)C)C1.[Br-] (stereo not drawn) [Compound 48A]
5.52 to 6.00

# lookup: pIC50 of Cc1cccc(C)c1NC(=O)C[N+]1(Cc2ccccc2)CCCC(C(=O)OC(C)C)C1 (mixture of isomers) [Compound 46A, trifluoroacetate salt]
6.00 to 6.52

# lookup: pIC50 of CCN(CC)C(=O)C1CCC[N+](CC(=O)Nc2c(C)cccc2C)(Cc2ccccc2)C1 (stereo not drawn) [Compound 66A]
5.52 to 6.00

# lookup: pIC50 of Cc1cccc(C)c1N1CCC([N+]2(Cc3ccccc3)CCCCCCC2)C1=O.[Br-] (stereo not drawn) [Compound 90A]
6.00 to 6.52

###

assaySystem: NaV1.7 (Homo sapiens, UniProt Q15858)
Construct: expressed in transfected cells; host or cells: HEK293 (tetracycline-inducible)
assayInfo: Automated patch clamp (Qube 384), internal block of NaV1.7
Format: cell-based
runConditions: IC50, compound in internal solution, HEK293 cells, read-out: Nav1.7 Intracellular Inhibition
Excerpt: NaV1.7 was expressed in HEK293 cells upon induction with tetracycline. […] Before experiments, cells were washed with DPBS (VWR, Radnor, Pa.), digested with Detachin (VWR Radnor, Pa.) and then triturated 10 times in CHO Serum-Free Media (VWR Radnor, Pa.) to resuspend the cells and to break apart cell aggregates. Cells were counted and the final concentration was set at 2-5 million cells per mL. […]
pIC50: −log10 of the molar value.
propertyName: pIC50

CCC(C(=O)Nc1c(C)cccc1C)[N+]1(Cc2cccc(Cl)c2)CCCCC1 (centres unmarked) = 6.00 to 6.52
Cc1cccc(C(C)C)c1NC(=O)C[N+]1(Cc2ccccc2)CCCCCC1.[Br-] [Compound 74A] = 6.00 to 6.52
CCc1cccc(C)c1NC(=O)C[N+]1(Cc2ccccc2)CCCCCC1 [Compound 70A] = 6.00 to 6.52
CCCOC(=O)N1CCC[N+](CC(=O)Nc2c(C)cccc2C)(Cc2ccccc2)CC1.[Br-] (centres unmarked) [Compound 68A] = 6.00 to 6.52
Cc1cccc(C)c1NC(=O)C[N+]1(Cc2ccccc2)CCCC(C(=O)OC2CCCCC2)C1.[Br-] (centres unmarked) [Compound 51A] = 5.00 to 5.52
COC(=O)c1cccc(C[N+]2(CC(=O)Nc3c(C)cccc3C)CCCCC2)c1.[Br-] [Compound 35A] = 5.52 to 6.00

# lookup: pIC50 of Cc1cccc(C)c1N1CCCC([N+]2(Cc3ccccc3)CCCCC2)C1=O (centres unmarked) [Compound 92A]
5.52 to 6.00

# lookup: pIC50 of Cc1cccc(C)c1NC(=O)C[N+]1(Cc2ccccc2)CCCC(C(=O)OC2CCCC2)C1.[Br-] (centres unmarked) [Compound 50A]
5.52 to 6.00
